system: SKBR3; experiment: -log10 GI50 (growth inhibition 50%) (-log10(M)); higher = more potent growth inhibition
readout: -log10 GI50

- compound: "O=c1[nH]c2ccccc2n1C1CCN(Cc2ccc(-c3[nH]c4cc5ncnc5cc4nc3-c3ccccc3)cc2)CC1 [Akt inhibitor VIII]"
  readout: "-log10 GI50"
  readout_number: 5.68
- compound: "Nc1ccn([C@@H]2O[C@H](CO)[C@@H](O)C2(F)F)c(=O)n1 [Gemcitabine]"
  readout: "-log10 GI50"
  readout_number: 7.97
- compound: "CCC1=C[C@@H]2CN(C1)Cc1c([nH]c3ccccc13)[C@@](C(=O)OC)(c1cc3c(cc1OC)N(C)[C@H]1[C@@](O)(C(=O)OC)[C@H](OC(C)=O)[C@]4(CC)C=CCN5CC[C@]31[C@@H]54)C2 [Vinorelbine]"
  readout: "-log10 GI50"
  readout_number: 7.83
- compound: "Cc1[nH]c2ccccc2c1CCNCc1ccc(/C=C/C(=O)NO)cc1 [LBH589]"
  readout: "-log10 GI50"
  readout_number: 7.25
- compound: "C[C@]12O[C@H](C[C@]1(O)CO)n1c3ccccc3c3c4c(c5c6ccccc6n2c5c31)CNC4=O [Lestaurtinib]"
  readout: "-log10 GI50"
  readout_number: 6
- compound: "COC1=C2C[C@@H](C)C[C@H](OC)[C@H](O)[C@@H](C)/C=C(\\C)[C@H](OC(N)=O)[C@@H](OC)/C=C\\C=C(/C)C(=O)NC(=CC1=O)C2=O [Geldanamycin]"
  readout: "-log10 GI50"
  readout_number: 7.79

###

tested on: MDAMB361; assay: -log10 GI50 (growth inhibition 50%) (-log10(M)); higher = more potent growth inhibition

- structure_smiles: "COc1cc2ncnc(Nc3cccc(Cl)c3)c2cc1OC"
  -log10 GI50: 4.82
- structure_smiles: "O=C(c1ccc(Nc2nccc(-c3cc4ccccc4s3)n2)cc1)N1CCC(N2CCCC2)CC1"
  -log10 GI50: 5.24
- structure_smiles: "CNC(=O)c1cc(Oc2ccc(NC(=O)Nc3ccc(Cl)c(C(F)(F)F)c3)cc2)ccn1"
  -log10 GI50: 4.22
- structure_smiles: "Cn1c(=O)n(-c2ccc(C(C)(C)C#N)cc2)c2c3cc(-c4cnc5ccccc5c4)ccc3ncc21"
  -log10 GI50: 6.68

###

-log10 GI50 values by entry
test system: LY2; assay: -log10 GI50 (growth inhibition 50%) (-log10(M)); higher = more potent growth inhibition

- molecule: "CCCCCN(C)CCC(O)(P(=O)(O)O)P(=O)(O)O [Ibandronate sodium]"
  -log10 GI50: 3.9
- molecule: "COC1=C2C[C@@H](C)C[C@H](OC)[C@H](O)[C@@H](C)/C=C(\\C)[C@H](OC(N)=O)[C@@H](OC)/C=C\\C=C(/C)C(=O)NC(=CC1=O)C2=O"
  -log10 GI50: 7.24
- molecule: "CCC1=C[C@@H]2CN(C1)Cc1c([nH]c3ccccc13)[C@@](C(=O)OC)(c1cc3c(cc1OC)N(C)[C@H]1[C@@](O)(C(=O)OC)[C@H](OC(C)=O)[C@]4(CC)C=CCN5CC[C@]31[C@@H]54)C2"
  -log10 GI50: 7.88
- molecule: "Nc1nc2[nH]cc(CCc3ccc(C(=O)N[C@@H](CCC(=O)O)C(=O)O)cc3)c2c(=O)[nH]1"
  -log10 GI50: 6.33
